B1: HEEH_KT_rd6_3546 (parent)
chain: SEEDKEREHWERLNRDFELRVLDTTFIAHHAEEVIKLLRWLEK

# Variants of: B1
# PROCEDURE_SUMMARY: folding stability dG (cDNA display proteolysis); higher = more stable
# STUDY_CONDITIONS: PBS, room temperature
QUANTITY_NAME: folding stability dG (kcal/mol)
Express the result in kcal/mol but write the number alone.

>  <MUTANT_NAME>
K43E

>  <VALUE_UNIT>
kcal/mol

>  <folding stability dG>
1.3

$$$$

[Q] Find the recorded folding stability dG belonging to A31G and report it.
[A] 0.934

[Q] // query: L19M
[A] 0.996

[Q] // query: E18G
[A] 1.36

[Q] // query: S1L
[A] 1.35

[Q] // query: I35E
[A] 0.843

[Q] // query: E32G
[A] 1.2

[Q] // query: A28Y
[A] 1.64

[Q] // query: L22W
[A] 1.35

[Q] // query: K36V
[A] 1.87

[Q] // query: R39K
[A] 1.28

[Q] // query: W40N
[A] 0.617

[Q] // query: T24D
[A] 0.925

[Q] // query: E3Q
[A] 1.41

[Q] // query: H9V
[A] 1.47

[Q] // query: V34R
[A] 0.162
